Molecular target: TRKA (Homo sapiens)
Construct: purchased Carna Biosciences 08-186
Assay: In vitro biochemical HTRF KinEASE kinase inhibition, TRKA
Settings: wild-type kinase, final ATP 3.727 μmol/L; read-out: TRKA IC50
pIC50: −log10 of the molar value.
endpoint.label: pIC50

Use these answered entries as a reference point.
{"compound": "CC(=O)n1cc(-c2cnn3ccc(NC(C)c4cc(F)ccc4OCCF)nc23)cn1 (stereo not shown) [Compound a21-28]", "pIC50": 8.28}
{"compound": "C[C@@H](Nc1ccn2ncc(-c3cnn(CC#N)c3)c2n1)c1cc(F)ccc1OCC(F)F [Compound 7]", "pIC50": 8.62}

I. CC(Nc1ccn2ncc(-c3cnn(C(F)F)c3)c2n1)c1cc(F)ccc1OCCO (stereo not shown) [Compound a8-13]
II. CC(Nc1ccn2ncc(-c3cnn(C4CCCCC4O)c3)c2n1)c1cc(F)ccc1OCCF (stereo not shown) [Compound a18-25]
I'd appreciate it if you could identify which of I and II has the greater pIC50. # reply format: chosen label
II
(II: 8.05, I: 7.39)

====

Biological target: TRKA-G595R (Homo sapiens, UniProt P04629, G595R)
Sequence (P04629 33-796 G595R): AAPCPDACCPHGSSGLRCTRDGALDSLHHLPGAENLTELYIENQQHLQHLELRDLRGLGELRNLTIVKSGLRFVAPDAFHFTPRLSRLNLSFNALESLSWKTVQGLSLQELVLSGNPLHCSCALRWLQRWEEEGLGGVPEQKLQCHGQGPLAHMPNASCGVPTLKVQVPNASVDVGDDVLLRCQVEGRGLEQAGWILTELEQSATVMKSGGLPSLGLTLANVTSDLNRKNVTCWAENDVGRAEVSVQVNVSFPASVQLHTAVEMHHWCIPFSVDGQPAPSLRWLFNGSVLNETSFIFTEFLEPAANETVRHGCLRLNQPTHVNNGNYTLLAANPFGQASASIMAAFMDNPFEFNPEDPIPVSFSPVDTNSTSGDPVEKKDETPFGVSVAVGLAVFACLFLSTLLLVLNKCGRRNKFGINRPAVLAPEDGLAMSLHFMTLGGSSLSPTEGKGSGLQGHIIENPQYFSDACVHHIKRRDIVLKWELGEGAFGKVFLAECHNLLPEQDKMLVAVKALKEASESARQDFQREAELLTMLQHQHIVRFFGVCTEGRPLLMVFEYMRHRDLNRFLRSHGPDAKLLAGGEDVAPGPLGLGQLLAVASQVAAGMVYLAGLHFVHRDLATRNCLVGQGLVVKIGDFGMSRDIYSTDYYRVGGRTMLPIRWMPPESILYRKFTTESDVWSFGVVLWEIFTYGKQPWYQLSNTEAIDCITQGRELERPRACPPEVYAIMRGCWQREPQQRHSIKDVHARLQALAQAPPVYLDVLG
Experiment: TRK kinase mutant inhibition (HTRF), TRKA-G595R
endpoint.label: IC50 (nM)

1. C[C@@H](Nc1ccn2ncc(-c3cn[nH]c3)c2n1)c1cc(F)ccc1OCC(F)F
2. C[C@@H](Nc1ccn2ncc(-c3cnn(C)c3)c2n1)c1cc(F)ccc1OCC(F)(F)F
Sorting ascending by IC50, which comes first: 1 or 2 ? # reply format: chosen label
1

====

Target: TRKA (Homo sapiens, UniProt P04629)
Construct: purchased Carna Biosciences 08-186
Sequence (P04629 33-796): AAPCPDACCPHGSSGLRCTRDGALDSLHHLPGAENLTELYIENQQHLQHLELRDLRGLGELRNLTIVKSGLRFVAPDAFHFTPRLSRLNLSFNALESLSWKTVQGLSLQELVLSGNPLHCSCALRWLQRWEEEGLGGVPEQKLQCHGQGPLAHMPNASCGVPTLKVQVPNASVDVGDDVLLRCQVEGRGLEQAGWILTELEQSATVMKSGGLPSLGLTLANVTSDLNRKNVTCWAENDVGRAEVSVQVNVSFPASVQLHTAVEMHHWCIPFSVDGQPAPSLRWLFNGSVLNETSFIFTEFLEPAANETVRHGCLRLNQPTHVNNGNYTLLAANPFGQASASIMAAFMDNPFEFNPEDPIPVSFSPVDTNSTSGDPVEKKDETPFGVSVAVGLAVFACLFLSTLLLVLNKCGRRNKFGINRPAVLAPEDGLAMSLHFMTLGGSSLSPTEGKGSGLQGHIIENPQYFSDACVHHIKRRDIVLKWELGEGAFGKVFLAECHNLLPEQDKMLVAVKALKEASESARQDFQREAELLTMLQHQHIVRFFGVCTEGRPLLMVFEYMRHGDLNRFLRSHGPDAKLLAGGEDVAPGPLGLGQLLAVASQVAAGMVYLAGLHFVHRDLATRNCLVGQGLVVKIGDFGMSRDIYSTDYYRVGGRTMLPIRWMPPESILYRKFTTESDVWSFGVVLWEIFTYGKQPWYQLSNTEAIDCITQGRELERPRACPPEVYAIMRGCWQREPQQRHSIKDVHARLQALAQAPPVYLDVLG
Assay: In vitro biochemical HTRF KinEASE kinase inhibition, TRKA
Settings: wild-type kinase, final ATP 3.727 μmol/L; read-out: TRKA IC50
pIC50: −log10 of the molar value.
endpoint.label: pIC50

{"compound": "CC(Nc1ccn2ncc(-c3cnn(CCO)c3)c2n1)c1cc(F)ccc1OCCF (stereo not shown)", "pIC50": 8.10}
{"compound": "CC(Nc1ccn2ncc(-c3cnn(C4CCCCC4O)c3)c2n1)c1cc(F)ccc1OCC(F)F (stereo not shown)", "pIC50": 7.94}

P. CC(Nc1ccn2ncc(-c3cnn(C(F)F)c3)c2n1)c1cc(F)ccc1OCCF (stereo not shown)
Q. CC(Nc1ccn2ncc(-c3cnn(C(F)F)c3)c2n1)c1cc(F)ccc1OCC(F)F (stereo not shown)
I'd appreciate it if you could identify which of P and Q has the greater pIC50. # reply format: chosen label
Q

====

Molecular target: TRKA (Homo sapiens)
Construct: purchased Carna Biosciences 08-186
Assay: In vitro biochemical HTRF KinEASE kinase inhibition, TRKA
Settings: wild-type kinase, final ATP 3.727 μmol/L; read-out: TRKA IC50
endpoint.label: IC50 (nM)

Use these answered entries as a reference point.
{"compound": "COc1ccc(F)cc1C(C)Nc1ccn2ncc(-c3cn[nH]c3)c2n1 (centres unmarked) [Compound b2-5]", "IC50 / nM": 15.2}
{"compound": "CC(Nc1ccn2ncc(-c3cnn(C)c3)c2n1)c1cc(F)ccc1OCC1CC1 (centres unmarked) [Compound a26-38]", "IC50 / nM": 11.5}
{"compound": "CC(Nc1ccn2ncc(-c3cn[nH]c3)c2n1)c1cc(F)ccc1OC(F)F (centres unmarked) [Compound b4-7]", "IC50 / nM": 3.37}
{"compound": "CC(Nc1ccn2ncc(-c3cnn(C)c3)c2n1)c1cc(F)cc(F)c1OCC(F)F (centres unmarked) [Compound 15]", "IC50 / nM": 11.7}
{"compound": "CC(Nc1ccn2ncc(-c3cnn(S(C)(=O)=O)c3)c2n1)c1cc(F)ccc1OCC(F)F (centres unmarked) [Compound 13]", "IC50 / nM": 10.4}

I. CC(Nc1ccn2ncc(-c3cn[nH]c3)c2n1)c1cc(F)cc(F)c1OCC(F)F (centres unmarked) [Compound 14]
II. C[C@@H](Nc1ccn2ncc(-c3cnn(CC#N)c3)c2n1)c1cc(F)ccc1OCCF [Compound a12-19]
III. CC(Nc1ccn2ncc(-c3cnn(C)c3)c2n1)c1cc(F)ccc1OCC1CCOCC1 (centres unmarked) [Compound a28-43]
Rank ascending by IC50. Give your ranking as a list of the labels in the requested order.
II, I, III

====

Molecular target: TRKA (Homo sapiens)
Construct: purchased Carna Biosciences 08-186
Assay: In vitro biochemical HTRF KinEASE kinase inhibition, TRKA
Conditions: wild-type kinase, final ATP 3.727 μmol/L; read-out: TRKA IC50
pIC50: −log10 of the molar value.
endpoint.label: pIC50

Use these answered entries as a reference point.
{"molecule": "C[C@@H](Nc1ccn2ncc(-c3cnn(CCO)c3)c2n1)c1cc(F)ccc1OCC(F)F", "pIC50": 8.44}
{"molecule": "C[C@@H](Nc1ccn2ncc(-c3cnn(C)c3)c2n1)c1cc(F)ccc1OCC(F)(F)F", "pIC50": 8.40}
{"molecule": "CC(Nc1ccn2ncc(-c3cnn(CC(F)F)c3)c2n1)c1cc(F)ccc1OCCF (centres unmarked)", "pIC50": 8.05}

P. CC(Nc1ccn2ncc(-c3cn[nH]c3)c2n1)c1cc(F)ccc1OC1CCOC1 (centres unmarked)
Q. C[C@@H](Nc1ccn2ncc(-c3cnn(C4CCCCO4)c3)c2n1)c1cc(F)ccc1OCCF (some centres unmarked)
R. CC(Nc1ccn2ncc(-c3cnn(C4CCCC4O)c3)c2n1)c1cc(F)ccc1O (centres unmarked)
Reorder: pIC50, max to min. Give your ranking as a list of the labels in the requested order.
Q, P, R
(Q: 8.55, P: 8.35, R: 7.98)

1. CC(Nc1ccn2ncc(-c3cn[nH]c3)c2n1)c1ccccc1OCC(F)F (centres unmarked)
2. CC(Nc1ccn2ncc(-c3cn[nH]c3)c2n1)c1cc(F)ccc1OCC1CC1 (centres unmarked)
I'd appreciate it if you could identify which of 1 and 2 has the greater pIC50. # reply format: chosen label
2

====

Assay: Drug metabolism study in rats, intravenous administration
Details: rat, plasma, iv, 1 mg/kg
endpoint.label: half-life (h)

{"smiles": "C[C@@H](Nc1ccn2ncc(-c3cn[nH]c3)c2n1)c1cc(F)ccc1OCC(F)(F)F", "quantitative.readout": 4.95}

I. C[C@@H](Nc1ccn2ncc(-c3cnn(CCO)c3)c2n1)c1cc(F)ccc1OCC(F)(F)F
II. C[C@@H](Nc1ccn2ncc(-c3cnn(C)c3)c2n1)c1cc(F)ccc1OCC(F)F
Sorting ascending by half-life, which comes first: I or II ? # reply format: chosen label
II

====

Experiment: Drug metabolism study in rats, intravenous administration
Details: rat, plasma, iv, 1 mg/kg
endpoint.label: AUC(0-t) (ng·h/mL)

Use these answered entries as a reference point.
{"smiles": "C[C@@H](Nc1ccn2ncc(-c3cnn(CCO)c3)c2n1)c1cc(F)ccc1OCC(F)F", "AUC(0-t) (ng·h/mL)": 194}
{"smiles": "C[C@@H](Nc1ccn2ncc(-c3cnn(CCO)c3)c2n1)c1cc(F)ccc1OCC(F)(F)F", "AUC(0-t) (ng·h/mL)": 343}
{"smiles": "C[C@@H](Nc1ccn2ncc(-c3cn[nH]c3)c2n1)c1cc(F)ccc1OCC(F)F", "AUC(0-t) (ng·h/mL)": 434}

A. C[C@@H](Nc1ccn2ncc(-c3cnn(C)c3)c2n1)c1cc(F)ccc1OCC(F)F
B. C[C@@H](Nc1ccn2ncc(-c3cn[nH]c3)c2n1)c1cc(F)ccc1OCC(F)(F)F
I'd appreciate it if you could identify which of A and B has the greater AUC(0-t). # reply format: chosen label
B

====

Target: TRKC-G696A (Homo sapiens, UniProt Q16288, G696A)
Construct: purchased Carna Biosciences
Sequence (Q16288 32-839 G696A): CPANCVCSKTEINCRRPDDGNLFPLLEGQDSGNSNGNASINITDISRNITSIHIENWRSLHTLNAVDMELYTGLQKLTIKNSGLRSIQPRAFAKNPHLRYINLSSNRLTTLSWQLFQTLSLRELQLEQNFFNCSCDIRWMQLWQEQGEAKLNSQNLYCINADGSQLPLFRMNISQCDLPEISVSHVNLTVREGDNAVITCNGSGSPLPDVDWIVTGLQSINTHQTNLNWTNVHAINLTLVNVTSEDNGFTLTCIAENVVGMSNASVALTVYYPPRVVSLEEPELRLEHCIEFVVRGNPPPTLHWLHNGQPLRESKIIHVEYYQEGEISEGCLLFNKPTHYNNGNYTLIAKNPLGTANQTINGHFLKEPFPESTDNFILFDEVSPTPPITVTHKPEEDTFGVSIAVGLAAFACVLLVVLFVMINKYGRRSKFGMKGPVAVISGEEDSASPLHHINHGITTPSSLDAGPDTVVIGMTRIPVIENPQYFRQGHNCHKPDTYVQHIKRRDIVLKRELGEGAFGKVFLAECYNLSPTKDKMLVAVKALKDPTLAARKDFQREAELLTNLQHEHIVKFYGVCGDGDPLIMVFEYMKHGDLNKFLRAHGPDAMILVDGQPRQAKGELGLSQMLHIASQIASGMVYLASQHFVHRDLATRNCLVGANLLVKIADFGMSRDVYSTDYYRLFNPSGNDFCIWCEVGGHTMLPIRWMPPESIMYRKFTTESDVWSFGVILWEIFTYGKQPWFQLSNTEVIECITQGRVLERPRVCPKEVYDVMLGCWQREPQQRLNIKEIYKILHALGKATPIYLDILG
Assay: TRK kinase mutant inhibition (HTRF), TRKC-G696A
Format: biochemical
endpoint.label: IC50 (nM)

{"smiles": "C[C@@H](Nc1ccn2ncc(-c3cn[nH]c3)c2n1)c1cc(F)ccc1OCC(F)F", "quantitative.readout": 0.76}
{"smiles": "C[C@@H](Nc1ccn2ncc(-c3cnn(CCO)c3)c2n1)c1cc(F)ccc1OCC(F)F", "quantitative.readout": 1}
{"smiles": "C[C@@H](Nc1ccn2ncc(-c3cnn(C)c3)c2n1)c1cc(F)ccc1OCC(F)(F)F", "quantitative.readout": 0.88}

====

Assay: Drug metabolism study in rats, intravenous administration
Details: rat, in vivo, iv, 1 mg/kg
endpoint.label: Vd (L/kg)
Express your answer in L/kg, writing the number without its unit.

So what does the record say about Vd for C[C@@H](Nc1ccn2ncc(-c3cnn(CCO)c3)c2n1)c1cc(F)ccc1OCC(F)F [Compound 5] ?
40

====

Test: Drug metabolism study in rats, oral administration
Conditions: rat, oral 5 mg/kg
endpoint.label: CL (mL/min/kg)

Use these answered entries as a reference point.
{"smiles": "C[C@@H](Nc1ccn2ncc(-c3cn[nH]c3)c2n1)c1cc(F)ccc1OCC(F)F", "CL (mL/min/kg)": 126}
{"smiles": "C[C@@H](Nc1ccn2ncc(-c3cnn(CCO)c3)c2n1)c1cc(F)ccc1OCC(F)F", "CL (mL/min/kg)": 158}

1. C[C@@H](Nc1ccn2ncc(-c3cnn(C)c3)c2n1)c1cc(F)ccc1OCC(F)F
2. C[C@@H](Nc1ccn2ncc(-c3cn[nH]c3)c2n1)c1cc(F)ccc1OCC(F)(F)F
3. C[C@@H](Nc1ccn2ncc(-c3cnn(CCO)c3)c2n1)c1cc(F)ccc1OCC(F)(F)F
Rank ascending by CL. Give your ranking as a list of the labels in the requested order.
2, 3, 1
(2: 57.7 mL/min/kg, 3: 105 mL/min/kg, 1: 168.7 mL/min/kg)
